experiment: Binding affinity to pig spleen Hsp90 ATPase pocket by Bradford assay; format: tissue-based, Sus scrofa
measure: Kd (nM)

Known results for compounds:
{"compound": "CC(C)c1nn(-c2ccc(C(N)=O)c(N[C@H]3CC[C@H](O)CC3)c2)c2c1C(=O)CC(C)(C)C2", "unit info": "nM", "Kd": 177}
{"compound": "Cc1nn(-c2ccc(C(N)=O)c(NC3CCC3)c2)c2c1C(=O)CC(C)(C)C2", "unit info": "nM", "Kd": 114}

a: COc1cc(Nc2cc(-n3cc(C)c4c3CC(C)(C)CC4=O)ccc2C(N)=O)cc(OC)c1OC
b: Cc1c2c(n(-c3ccc(C(N)=O)c(N[C@H]4CC[C@H](O)CC4)c3)c1C)CC(C)(C)CC2=O
Prompt: Could you tell me which of a and b has the lower Kd reading? Write down the label attached to your selection.
Completion: b

I: COCC(C)Nc1cc(-n2nc(C)c3c2CC(C)(C)CC3=O)ccc1C(N)=O (stereo unspecified)
II: Cc1nn(-c2ccc(C(N)=O)c(NC3CCOCC3)c2)c2c1C(=O)CC(C)(C)C2
Prompt: Determine, for I and II , which has the greater value of Kd. Write down the label attached to your selection.
Completion: I

I: CCCCNc1cc(-n2c(C)cc3c2CC(C)(C)CC3=O)ccc1C(N)=O
II: Cc1cc2c(n1-c1ccc(C(N)=O)c(Sc3ccccc3)c1)CC(C)(C)CC2=O
Prompt: Determine, for I and II , which has the greater value of Kd. Write down the label attached to your selection.
Completion: II
(II: 1060 nM, I: 390 nM)

P: COCCNc1cc(-n2c(C)cc3c2CC(C)(C)CC3=O)ccc1C(N)=O
Q: COc1cc(Nc2cc(-n3cc(C)c4c3CCCC4=O)ccc2C(N)=O)cc(OC)c1OC
Prompt: Determine, for P and Q , which has the greater value of Kd. Write down the label attached to your selection.
Completion: Q

P: Cc1nn(-c2ccc(C(N)=O)c(NCc3ccco3)c2)c2c1C(=O)CC(C)(C)C2
Q: CC1(C)CC(=O)c2c(C(F)F)nn(-c3ccc(C(N)=O)c(N[C@H]4CC[C@H](O)CC4)c3)c2C1
Prompt: Determine, for P and Q , which has the greater value of Kd. Write down the label attached to your selection.
Completion: P

P: CC1(C)CC(=O)c2c(C(F)(F)F)nn(-c3ccc(C(N)=O)c(NCCCN4CCCC4=O)c3)c2C1
Q: Cc1cc2c(n1-c1ccc(C(N)=O)c(Nc3ccccc3)c1)CC(C)(C)CC2=O
Prompt: Determine, for P and Q , which has the greater value of Kd. Write down the label attached to your selection.
Completion: Q

---

target: Heat shock protein HSP90 (Homo sapiens, UniProt P07900+P08238); assay type: cell-based; conditions: au565
measure: IC50 (nM)

A: CC1(C)CC(=O)c2c(CC3CC3)nn(-c3ccc(C(N)=O)c(N[C@H]4CC[C@H](O)CC4)c3)c2C1
B: Cc1nn(-c2ccc(C(N)=O)c(NC(C)S(C)(=O)=O)c2)c2c1C(=O)CC(C)(C)C2 (stereo not given)
Prompt: Could you tell me which of A and B has the lower IC50 reading? Write down the label attached to your selection.
Completion: A

---

molecular target: Heat shock protein HSP90 (Homo sapiens, UniProt P07900+P08238); type: cell-based; conditions: au565
measure: IC50 (nM)

Known results for compounds:
{"compound structure string": "COc1cc(Nc2cc(-n3ccc4c3CC(C)(C)CC4=O)ccc2C(N)=O)cc(OC)c1OC", "unit info": "nM", "IC50": 1830}
{"compound structure string": "COCC(COC)Nc1cc(-n2nc(C(F)(F)F)c3c2CC(C)(C)CC3=O)ccc1C(N)=O", "unit info": "nM", "IC50": 181}

a: Cc1cc2c(n1-c1ccc(C(N)=O)c(Nc3ccccc3)c1)CC(C)(C)CC2=O
b: CSCCNc1cc(-n2nc(C)c3c2CC(C)(C)CC3=O)ccc1C(N)=O
c: COc1cc(Nc2cc(-n3cc(C)c4c3CCCC4=O)ccc2C(N)=O)cc(OC)c1OC
Prompt: Order by IC50, ascending. List the labels, following the order given in the request.
Completion: b, c, a

// data source = ChEMBL document CHEMBL1158466
